The origin of these recorded values is patent US20260159520A1.

Test system: T47D cells
Assay: Cellular growth inhibition assay for T47D cells
Type: cell-based
Details: Homo sapiens, 72 hours, CellTiter-Glo 2.0
Listed here: items and their measured GI50.

Request: Fill in reported GI50 for this entry: COc1cc(F)ccc1-c1ccnc2[nH]c(C3CCN(CCOCCOCCOCCOC4CCN(c5ncc(C(=O)N[C@H]6C(C)(C)[C@H](Oc7ccc(C#N)c(Cl)c7)C6(C)C)cn5)CC4)CC3)cc12 [Compound I-70]
Result: 1500 to 3000 nM

====

Test system: T47D cells
Test: Cellular growth inhibition assay for T47D cells
Format: cell-based
Conditions: Homo sapiens, 72 hours, CellTiter-Glo 2.0
Listed here: items and their measured GI50.

Solved entries (count: 2):
molecule	GI50
CCc1cnn2c(NCc3ccc(COCCN4CCN(CC5CCN(c6ncc(C(=O)N[C@H]7C(C)(C)[C@H](Oc8ccc(C#N)c(Cl)c8)C7(C)C)cn6)CC5)CC4)nc3)cc(N3CCCC[C@H]3CCO)nc12 [Compound I-42]	< 0.5 µM
CCc1cnn2c(NCc3ccc(OCC4CCN(CC5CCN(c6ncc(C(=O)N[C@H]7C(C)(C)[C@H](Oc8ccc(C#N)c(Cl)c8)C7(C)C)cn6)CC5)CC4)nc3)cc(N3CCCC[C@H]3CCO)nc12 [Compound I-51]	< 0.5 µM

Request: Give measured GI50 for CCc1cnn2c(NCc3ccc(OCCOC4CCN(c5ncc(C(=O)N[C@H]6C(C)(C)[C@H](Oc7ccc(C#N)c(Cl)c7)C6(C)C)cn5)CC4)nc3)cc(N3CCCC(F)(F)C3)nc12 [Compound I-84] (T47D cells).
Result: 1.5 to 3 µM

Request: Give measured GI50 for CCc1cnn2c(NCc3ccc(N4CCC(CN5CCC6CN(c7ncc(C(=O)N[C@H]8C(C)(C)[C@H](Oc9ccc(C#N)c(Cl)c9)C8(C)C)cn7)CCC6C5)CC4)nc3)cc(N3CCCC[C@H]3CCO)nc12 (stereo partly drawn) [Compound I-71] (T47D cells).
Result: 1.5 to 3 µM

Request: Give measured GI50 for CN(CCCN1CCN(CCCNS(=O)(=O)c2ccc(Nc3ncc(Br)c(Nc4cccc(F)c4C(N)=O)n3)cc2)CC1)c1ncc(C(=O)N[C@H]2C(C)(C)[C@H](Oc3ccc(C#N)c(Cl)c3)C2(C)C)cn1 [Compound I-22] (T47D cells).
Result: < 0.5 µM

====

What follows is a collection of pKd values obtained with CDK9 (Homo sapiens, UniProt P50750).
Sequence (P50750 whole entry): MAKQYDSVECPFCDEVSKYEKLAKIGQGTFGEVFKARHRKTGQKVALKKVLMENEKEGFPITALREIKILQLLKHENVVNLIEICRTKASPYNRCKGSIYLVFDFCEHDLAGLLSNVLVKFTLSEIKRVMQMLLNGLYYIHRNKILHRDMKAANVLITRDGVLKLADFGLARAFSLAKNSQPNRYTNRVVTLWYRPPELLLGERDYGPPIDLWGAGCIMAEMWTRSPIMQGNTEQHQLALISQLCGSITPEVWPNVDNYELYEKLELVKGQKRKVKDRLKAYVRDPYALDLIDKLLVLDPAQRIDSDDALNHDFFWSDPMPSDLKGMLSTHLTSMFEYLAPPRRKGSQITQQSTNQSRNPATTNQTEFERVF
pKd: −log10 of the molar value.

sample.smiles	measured.target	pKd
CC1(C)[C@H](NC(=O)c2cnc(N3CCC(OCCNS(=O)(=O)c4ccc(Nc5ncc(Br)c(Nc6cccc(F)c6C(N)=O)n5)cc4)CC3)nc2)C(C)(C)[C@H]1Oc1ccc(C#N)c(Cl)c1	CDK9 (Homo sapiens, UniProt P50750)	< 5.60

Request: Give measured pKd for CCc1cnn2c(NCc3ccc(OCC4CCN(CC5CCN(c6ncc(C(=O)N[C@H]7C(C)(C)[C@H](Oc8ccc(C#N)c(Cl)c8)C7(C)C)cn6)CC5)CC4)nc3)cc(N3CCCC[C@H]3CCO)nc12 (CDK9 (Homo sapiens, UniProt P50750)).
Result: 6.30 to 7.30

Request: Give measured pKd for COc1cc(F)ccc1-c1ccnc2[nH]c(C3CCN(CCOCCOC4CCN(c5ncc(C(=O)N[C@H]6C(C)(C)[C@H](Oc7ccc(C#N)c(Cl)c7)C6(C)C)cn5)CC4)CC3)cc12 (CDK9 (Homo sapiens, UniProt P50750)).
Result: > 7.30

Request: Give measured pKd for CC1(C)[C@H](NC(=O)c2cnc(N3CCC(OCCOCCOCCOCCN4C/C=C/CCOc5cccc(c5)-c5ccnc(n5)Nc5cccc(c5)C4)CC3)nc2)C(C)(C)[C@H]1Oc1ccc(C#N)c(Cl)c1 (CDK9 (Homo sapiens, UniProt P50750)).
Result: 5.60 to 6.30

Request: Give measured pKd for CC(C)n1cc(-c2ccnc3[nH]c(C4CCN(CCOCCOCCOCCOC5CCN(c6ncc(C(=O)N[C@H]7C(C)(C)[C@H](Oc8ccc(C#N)c(Cl)c8)C7(C)C)cn6)CC5)CC4)cc23)ccc1=O (CDK9 (Homo sapiens, UniProt P50750)).
Result: > 7.30

====

System: VCaP cells
Experiment: Cellular growth inhibition assay for VCaP cells
Type: cell-based
Settings: Homo sapiens, 72 hours, CellTiter-Glo 2.0
endpoint.name: GI50

compound	GI50
CCc1cnn2c(NCc3ccc(OCCOC4CCN(c5ncc(C(=O)N[C@H]6C(C)(C)[C@H](Oc7ccc(C#N)c(Cl)c7)C6(C)C)cn5)CC4)nc3)cc(N3CCCC(F)(F)C3)nc12 [Compound I-84]	> 3500 nM
CCc1cnn2c(NCc3ccc(N4CC(N5CCC(N6CCN(c7ncc(C(=O)N[C@H]8C(C)(C)[C@H](Oc9ccc(C#N)c(Cl)c9)C8(C)C)cn7)CC6)CC5)C4)nc3)cc(N3CCCC[C@H]3CCO)nc12 [Compound I-64]	< 100 nM
CCc1cnn2c(NCc3ccc(OCCCCOCCCOC4CCN(c5ncc(C(=O)N[C@H]6C(C)(C)[C@H](Oc7ccc(C#N)c(Cl)c7)C6(C)C)cn5)CC4)nc3)cc(N3CCCC[C@H]3CCO)nc12 [Compound I-38]	100 to 1000 nM

Could you now consider this next compound?
Request: Fill in reported GI50 for this entry: CC(C)n1cc(-c2ccnc3[nH]c(C4CCN(CCN5CCN(CC6CCN(c7ncc(C(=O)NC8C(C)(C)C(Oc9ccc(C#N)c(Cl)c9)C8(C)C)cn7)CC6)CC5)CC4)cc23)ccc1=O (stereo not shown) [Compound I-74]
Result: < 100 nM

====

Test system: T47D cells
Assay: Cellular growth inhibition assay for T47D cells
Format: cell-based
Details: Homo sapiens, 72 hours, CellTiter-Glo 2.0
endpoint.name: GI50

Solved entries (count: 3):
sample.smiles	GI50
CCc1cnn2c(NCc3ccc(OCCCN4CCN(CC5CCN(c6ncc(C(=O)N[C@H]7C(C)(C)[C@H](Oc8ccc(C#N)c(Cl)c8)C7(C)C)cn6)CC5)CC4)nc3)cc(N3CCCC(F)(F)C3)nc12	500 to 1500 nM
CCc1cnn2c(NCc3ccc(N4CC(N5CCN(C6CCN(c7ncc(C(=O)N[C@H]8C(C)(C)[C@H](Oc9ccc(C#N)c(Cl)c9)C8(C)C)cn7)CC6)CC5)C4)nc3)cc(N3CCCC[C@H]3CCO)nc12	< 500 nM
CCc1cnn2c(NCc3ccc(OCCN(C)c4ncc(C(=O)N[C@H]5C(C)(C)[C@H](Oc6ccc(C#N)c(Cl)c6)C5(C)C)cn4)nc3)cc(N3CCCC[C@H]3CCO)nc12	500 to 1500 nM

Request: Fill in reported GI50 for this entry: CN(CCOCCOCCNS(=O)(=O)c1ccc(Nc2ncc(Br)c(Nc3cccc(F)c3C(N)=O)n2)cc1)c1ncc(C(=O)N[C@H]2C(C)(C)[C@H](Oc3ccc(C#N)c(Cl)c3)C2(C)C)cn1
Result: < 500 nM

Request: Fill in reported GI50 for this entry: CC1(C)[C@H](NC(=O)c2cnc(N3CCC(OCCCN4CCN(CCCNS(=O)(=O)c5ccc(Nc6ncc(Br)c(Nc7cccc(F)c7C(N)=O)n6)cc5)CC4)CC3)nc2)C(C)(C)[C@H]1Oc1ccc(C#N)c(Cl)c1
Result: 1500 to 3000 nM

====

Tested on: VCaP cells
Assay: Cellular growth inhibition assay for VCaP cells
Type: cell-based
Conditions: Homo sapiens, 72 hours, CellTiter-Glo 2.0
Method: VCaP cells were purchased from American Type Cell Culture (ATCC Cat #CRL2876) and then seeded on poly-D-lysine coated, black clear-bottom 384-well plates at 5000/well in 25 μL Dulbecco's Modified Eagle Medium (DMEM) supplemented with 10% w/w Fetal bovine serum (FBS) and 1% w/w Pen-Strep. […] At the end of the treatment duration, cell viability was quantified with CellTiter-Glo 2.0 reagent (Promega Cat #G9243). […] Data was normalized using zero luminescence for baseline. […]
endpoint.name: GI50

Solved entries (count: 5):
sample.smiles	endpoint.name	test.result
CCc1cnn2c(NCc3ccc(OC4CCN(CC5CCN(c6ncc(C(=O)N[C@H]7C(C)(C)[C@H](Oc8ccc(C#N)c(Cl)c8)C7(C)C)cn6)CC5)CC4)nc3)cc(N3CCCC[C@H]3CCO)nc12	GI50	0.1 to 1 µM
CC1(C)[C@H](NC(=O)c2cnc(N3CCC(OCCOCCOCCOCCN4C/C=C/CCOc5cccc(c5)-c5ccnc(n5)Nc5cccc(c5)C4)CC3)nc2)C(C)(C)[C@H]1Oc1ccc(C#N)c(Cl)c1	GI50	0.1 to 1 µM
CC(C)n1cc(-c2ccnc3[nH]c(C4CCN(CCOCCOCCOC5CCN(c6ncc(C(=O)N[C@H]7C(C)(C)[C@H](Oc8ccc(C#N)c(Cl)c8)C7(C)C)cn6)CC5)CC4)cc23)ccc1=O	GI50	0.1 to 1 µM
CCc1cnn2c(NCc3ccc(N4CCN(C5CCN(C6CN(c7ncc(C(=O)N[C@H]8C(C)(C)[C@H](Oc9ccc(C#N)c(Cl)c9)C8(C)C)cn7)C6)CC5)CC4)nc3)cc(N3CCCC[C@H]3CCO)nc12	GI50	< 0.1 µM
Cc1ncc(-c2nc(Nc3ccc(C(=O)N4CC[C@H](N(C)CCOC5CCN(c6ncc(C(=O)N[C@H]7C(C)(C)[C@H](Oc8ccc(C#N)c(Cl)c8)C7(C)C)cn6)CC5)C4)cc3)ncc2F)n1C(C)C	GI50	1 to 3.5 µM

Could you now consider this next molecule?
Request: Give measured GI50 for CCc1cnn2c(NCc3ccc(OCCOCCCCCOC4CCN(c5ncc(C(=O)N[C@H]6C(C)(C)[C@H](Oc7ccc(C#N)c(Cl)c7)C6(C)C)cn5)CC4)nc3)cc(N3CCCC[C@H]3CCO)nc12 (VCaP cells).
Result: > 3.5 µM
